- experimental.system: human β3 adrenergic receptor (Homo sapiens, UniProt P13945)
- Construct: expressed in transfected cells; host or cells: DXB-11 Chinese hamster ovary (CHO) cell line, stably transfected (phd expression vector)
- Sequence (P13945 whole entry): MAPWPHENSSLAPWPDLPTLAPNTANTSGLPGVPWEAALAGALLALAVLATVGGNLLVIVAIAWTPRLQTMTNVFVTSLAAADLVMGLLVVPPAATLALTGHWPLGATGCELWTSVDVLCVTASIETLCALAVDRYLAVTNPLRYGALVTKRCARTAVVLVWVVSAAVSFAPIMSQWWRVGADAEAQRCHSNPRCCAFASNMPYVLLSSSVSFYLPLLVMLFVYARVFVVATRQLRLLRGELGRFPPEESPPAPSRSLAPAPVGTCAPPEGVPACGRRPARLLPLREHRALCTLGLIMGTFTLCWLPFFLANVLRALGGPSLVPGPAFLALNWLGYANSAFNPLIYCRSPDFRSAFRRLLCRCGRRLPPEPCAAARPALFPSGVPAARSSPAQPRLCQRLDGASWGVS
- assay.details: whole cell receptor coupled c-AMP assay, human β3 receptor in CHO cells (EC50, Emax relative to isoproterenol)
- Type: cell-based
- applied.conditions: Emax ± standard error of the mean; average of at least 3 runs except where n = 1; compound tested in the isolated form listed
List of Emax (%) ± SEM values.

Sample answers from the record:
Measured Emax (%) ± SEM for this entry Cn1ccc(-c2ccccc2OC[C@@H](O)CNC(C)(C)Cc2ccc(Oc3ccc(C#N)cn3)cc2)n1 [Example 49] on human β3 adrenergic receptor (Homo sapiens, UniProt P13945): 59.1 n = 1%

Measured Emax (%) ± SEM for this entry CCOC(=O)c1ccc(Oc2ccc(CC(C)(C)NC[C@H](O)COc3ccccc3-c3nccs3)cc2)c(Cl)c1.O=C(O)C(F)(F)F [Example 222] on human β3 adrenergic receptor (Homo sapiens, UniProt P13945): 59.0 ± 10.0%

Others:
Measured Emax (%) ± SEM for this entry CC(C)(Cc1ccc(Oc2cccc(Cl)c2C(N)=O)cc1)NC[C@H](O)COc1ccccc1-c1ccno1.O=C(O)C(F)(F)F [Example 219] on human β3 adrenergic receptor (Homo sapiens, UniProt P13945): 50.4 ± 6.3%

Measured Emax (%) ± SEM for this entry CCOC(=O)c1ccc(Oc2ccc(CC(C)(C)NC[C@H](O)COc3ccccc3-c3nccs3)cc2)c(F)c1.O=C(O)C(F)(F)F [Example 185] on human β3 adrenergic receptor (Homo sapiens, UniProt P13945): 45.1 ± 2.6%

Measured Emax (%) ± SEM for this entry CC(C)(Cc1ccc(Oc2ncccc2C(N)=O)cc1)NC[C@H](O)COc1cccc(C2=NCCN2)c1 [Example 88] on human β3 adrenergic receptor (Homo sapiens, UniProt P13945): <10%
